# Test system: E. coli TESEC Mtb Asd
# method: growth (OD600 after 10 h); higher = more growth (less inhibition)
# assay-setup: arabinose induction (level): Low; compound 0.1 mM; raw OD600 reference: median of DMSO wells 0.417, cell-free background 0.041
Where a name gives a salt, the structure may show the parent alone.
Short version: growth at least 0.3 is true, less is false.

Use the examples below as a reference point.
molecule	class-label
CCCCC1C(=O)N(c2ccccc2)N(c2ccccc2)C1=O [Phenylbutazone]	false
CC1Cc2ccccc2N1NC(=O)c1ccc(Cl)c(S(N)(=O)=O)c1 (stereo unspecified) [Indapamide]	true
CCN(CC)CCNC(C(=O)OCCC(C)C)c1ccccc1 (stereo unspecified) [Camylofine chlorhydrate]	true
CCN1CCCC(OC(=O)C(c2ccccc2)c2ccccc2)C1 (stereo unspecified) [Piperidolate hydrochloride]	true
COc1ccc(C(=O)NCc2ccc(OCCN(C)C)cc2)cc1OC [Itopride]	true

Does the reported growth for Cc1ccc(C(=O)c2cc(O)c(O)c([N+](=O)[O-])c2)cc1 [Tolcapone] fall at or above the 0.3 mark?
false

Reported growth at or above 0.3? CCCNC(C)(C)COC(=O)c1ccccc1 [Meprylcaine hydrochloride]
true

// inclusive: growth at least 0.3? input: O=C1C(CC[S+]([O-])c2ccccc2)C(=O)N(c2ccccc2)N1c1ccccc1 (stereo unspecified) [Sulfinpyrazone]
true

Tell me whether growth is at least 0.3 here: Oc1c(I)cc(Cl)c2cccnc12 [Clioquinol]
false

Kindly determine if growth recorded for CN[C@@H]1[C@H](O[C@H]2[C@H](O[C@H]3[C@H](O)[C@@H](O)[C@H](NC(=N)N)[C@@H](O)[C@@H]3NC(=N)N)O[C@@H](C)[C@]2(O)CO)O[C@@H](CO)[C@H](O)[C@H]1O [Dihydrostreptomycin sulfate] is above or exactly 0.3.
false
